- ASSAY SYSTEM: T1, human GREM1 (hGREM1-His; SEQ ID NO: 595) (human, UniProt O60565 25-184)
- T1 construct: also called biotin-hGREM1-His; recombinant human GREM1 protein
- T1 sequence: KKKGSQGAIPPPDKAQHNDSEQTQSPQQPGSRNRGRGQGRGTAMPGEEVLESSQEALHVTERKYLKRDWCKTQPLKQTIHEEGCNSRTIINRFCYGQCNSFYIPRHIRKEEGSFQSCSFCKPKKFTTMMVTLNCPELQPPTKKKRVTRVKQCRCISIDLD
- ASSAY: SPR, Biacore T200, 37 C, mAb captured, hGREM1-His injected;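 also: HBS-EP running buffer containing heparin, association and dissociation phases tracked, KD computed as koff over kon and half-life derived from koff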
Tick Criterion met if t1/2 is 20 min or greater. Tick Criterion not met if t1/2 is less than 20 min.

Reference set, count: 3
BINDER	GROUP LABEL
H4H2783N2 (antibody, human IgG4, V domains shown, H4H prefix = human IgG4 Fc) VH: EVQLLESGGGLVQPGGSLRLSCAASGFTFSSYVMNWVRQAPGKGLEWVSAISGSGGSTYYADSVKGRSTISRDNSKNTLYLQMNSLRAEDTAIYYCAKGDIAAIVFDAFDIWGQGTVVTVSS VL: DIQMTQSPSSLSASVGDRVTITCQASQDISSALNWYQHKPGKAPKLLIYDASYLETGVPSRFSGSGSGTDFTFTISSLQPEDIATYYCQQYDNLPYTFGQGTKLEIK	Criterion not met
H4H2926N (antibody, human IgG4, V domains shown, H4H prefix = human IgG4 Fc) VH: EVQLVESGGGLVQTGRSLRLSCAASGFTFDDYAMNWVRQAPGKGLEWVSGISWNSGNIGYADSVKGRFTISRDNAKNSLYLQMNSLRAEDTALYYCVKYIGQQLVQDYFDYWGQGTLVTVSS VL: DIQMTQSPSSLSASVGDRVTITCQASQDITNYLNWYQQRPGKAPKLLIYDAFNLERGVPSRFSGSGYGTYFTFTISSLQPEDIAIYYCQQYDNLPLTFGGGTKVEIE	Criterion not met
H4H6252P (antibody, human IgG4, V domains shown, H4H prefix = human IgG4 Fc; also called H4H6252S) VH: QVQLVESGGGVVQPGRSLRLSCAASGFTFSNYGMHWVRQAPGRGLEWVAVIWFDGSNKYYADSVKGRFTISRDNSKNTLYLQMNSLRSEDTAVYYCTRDDYGDYDYPFDYWGQGTLVTVSS VL: DIQMTQSPSSLSASVGDRVTITCRASQGIRNDLGWYQQKPGKAPKRLIYAASSLQSGVPSRFSGSGSGTEFTLTISSLQPEDFATYYCLQYNTYPPFTFGPGTKVDIK	Criterion met

Input line: In plain terms: is recorded t1/2 at least 20 min for H4H6269P (antibody, human IgG4, V domains shown, H4H prefix = human IgG4 Fc) VH: QVQLQESGPGLVKPSQTLSLTCTVSGGSISSGGYYWTWIRQHPGKGLEWIGYIYYSGSTYYNPSLKSRVTMSVDTSKNQFSLKLSSVTAADTAVYYCARLLDFDYWGQGTLVTVSS VL: AIQMTQSPSSLSASVGDRVTITCRASQGIRNDLGWYQQKPGKAPKLLIYAASSLQSGVPSRFSGSGSGRDFTLTISSLQPEDFASYYCLQDHNYPLTFGGGTKVEIK ?
Output line: Criterion met

Input line: Threshold query (t1/2 >= 20 min) on H4H6270P (antibody, human IgG4, V domains shown, H4H prefix = human IgG4 Fc) VH: QVQLVESGGDVVQPGRSLRLSCAASGFTFSSYGMHWVRQAPGKGLEWVAIIWNDGSNKYYTDSVKGRFTISRDNSKNTLYLQMNGLRAEDTAIYYCARDQDQFDYWGQGTLVTVSS VL: EIVMTQSPATLSVSPGERATLSCRASQSISTNLAWYRQKPGQAPRLLIYDASTRATGIPARFSGSGSGTDFTLTISSLQSEDFAVYYCQQYSNWPPYTFGQGTKLEIK
Output line: Criterion not met

Input line: Reported t1/2 reaches at least 20 min for H4H6251P (antibody, human IgG4, V domains shown, H4H prefix = human IgG4 Fc) VH: QVQLVESGGGVVQPGKSLRLSCAASGFTFSRYGMHWVRQAPGKGLEWVAVIWYDGSNKYYADSVKGRFTISRDNSKNTLYLQMNSLRADDTAMYYCARDDYGDSPGFDFWGQGTLVTVSS VL: EIVMTQSPATLSVSPGERATLSCRASQSVSSNLAWYQQKPGQAPRLLIYDASTRATGIPARFSGTGSGTEFTLTISSLQSEDFALYYCQQYDDWPPWTFGQGTKVEIK ?
Output line: Criterion not met
